// reported Activity per item
Target: UniProtKB P43088
Sequence (P43088 whole entry): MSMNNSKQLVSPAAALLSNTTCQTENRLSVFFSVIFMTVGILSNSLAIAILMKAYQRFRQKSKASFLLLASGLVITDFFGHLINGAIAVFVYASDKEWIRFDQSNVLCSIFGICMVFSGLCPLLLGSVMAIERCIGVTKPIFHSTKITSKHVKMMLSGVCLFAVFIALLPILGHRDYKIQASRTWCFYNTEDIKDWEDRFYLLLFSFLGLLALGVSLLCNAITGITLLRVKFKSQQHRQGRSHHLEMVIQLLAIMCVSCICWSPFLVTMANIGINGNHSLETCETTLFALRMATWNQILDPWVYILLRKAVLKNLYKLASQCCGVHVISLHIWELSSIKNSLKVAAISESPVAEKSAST
Test: Activity at FP receptor at 1 uM by FLIPR assay
Express the result in % but write the number alone.

Please review the entries below; each comes with its answer.
>  <Smiles String>
Cc1cn(Cc2ccc(F)c(F)c2)c2c(-c3cc(NS(=O)(=O)c4cc(Cl)c(Cl)s4)no3)cc(F)cc12

>  <Activity / %>
18

$$$$
>  <Smiles String>
Cc1cn(Cc2ccc3ccccc3c2)c2c(-c3cc(NS(=O)(=O)c4ccc(Cl)c(Cl)c4)no3)cc(F)cc12

>  <Activity / %>
-8

$$$$

**Q:** Which Activity is reported with UniProtKB P43088 for this entry: Cc1cn(Cc2ccc(F)c(F)c2)c2c(-c3cc(NS(=O)(=O)c4ccc(F)c(F)c4F)no3)cc(F)cc12 ?
**A:** -11

**Q:** Item: Cc1cn(Cc2ccc3ccccc3c2)c2c(-c3cc(NS(=O)(=O)c4ccc(F)c(F)c4)no3)cc(F)cc12
**A:** 0

**Q:** For Cc1cn(Cc2ccc(Cl)cc2Cl)c2c(-c3nc(NS(=O)(=O)c4cc(Cl)c(Cl)s4)no3)cc(F)cc12 then?
**A:** -2

**Q:** Same question, Cc1cn(Cc2ccc(Cl)cc2Cl)c2c(-c3nnc(NS(=O)(=O)c4ccc(F)c(F)c4)o3)cc(F)cc12 this time
**A:** 26

**Q:** Now try Cc1cn(Cc2ccc3ccccc3c2)c2c(-c3cc(NS(=O)(=O)c4cc(Cl)c(Cl)s4)no3)cc(F)cc12 .
**A:** -4

**Q:** Same thing, different compound: Cc1cn(Cc2ccc(Cl)cc2Cl)c2c(-c3nnc(NS(=O)(=O)c4ccc(Cl)c(Cl)c4)o3)cc(F)cc12
**A:** -2

**Q:** One more compound: Cc1cn(Cc2ccc(F)c(F)c2)c2c(-c3cc(NS(=O)(=O)c4ccc(F)c(F)c4)no3)cc(F)cc12
**A:** 16

**Q:** Here is the next compound: Cc1cn(Cc2ccc(Cl)cc2Cl)c2c(-c3nnc(NS(=O)(=O)c4cc(F)c(F)cc4F)o3)cc(F)cc12
**A:** 21

**Q:** Okay, and Cc1cn(Cc2ccc3ccccc3c2)c2c(-c3cc(NS(=O)(=O)c4cc(F)c(F)cc4F)no3)cc(F)cc12 ?
**A:** 3

**Q:** Please give the result for Cc1cn(Cc2ccc(Cl)cc2Cl)c2c(-c3nnc(NC(=O)c4ccc(F)c(F)c4)o3)cc(F)cc12 too.
**A:** 15
